Values compiled from the supplement of paper PMC10567573.

B1: TRAF3IP2 (parent)
chain: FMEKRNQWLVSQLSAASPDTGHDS

Variants of: B1
ASSAY_PROTOCOL: protein stability index of a GFP-peptide fusion (GPS, HEK-293T) (PSI 1-6); higher = more stable;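 further: lentivirally expressed fusions sorted by FACS into six bins by GFP to DsRed ratio, PSI derived from sequencing read proportions per bin multiplied by bin number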
MEASUREMENT_CONDITIONS: c terminus: a fixed tail appended

RECORD_SEQUENCE: FMEKRNQWLVSQLSAISPDTGHDS [A16I]
protein stability index: 2.26

RECORD_SEQUENCE: FMEKRNQTLVSQLSAASPDTGHDS [W8T]
protein stability index: 5.2

RECORD_SEQUENCE: CMEKRNQWLVSQLSAASPDTGHDS [F1C]
protein stability index: 3.98

RECORD_SEQUENCE: FMEKRNQWLVSQLSAASPSTGHDS [D19S]
protein stability index: 2.43

RECORD_SEQUENCE: FMEKRNQWLVSQLSAASPDTGHRS [D23R]
protein stability index: 2.07

RECORD_SEQUENCE: FMEARNQWLVSQLSAASPDTGHDS [K4A]
protein stability index: 1.71

RECORD_SEQUENCE: FMEKRNQWLVSQLSAASWDTGHDS [P18W]
protein stability index: 1.67

RECORD_SEQUENCE: FMEKRNQWLVSQLSAASRDTGHDS [P18R]
protein stability index: 2.77

RECORD_SEQUENCE: FMEKRNQWLVSQLSATSPDTGHDS [A16T]
protein stability index: 1.96

RECORD_SEQUENCE: FMEKRNQWLVSQLSAAMPDTGHDS [S17M]
protein stability index: 2.1

RECORD_SEQUENCE: FMVKRNQWLVSQLSAASPDTGHDS [E3V]
protein stability index: 1.95
